Target: class A beta-lactamase TEM-1 (Escherichia coli, UniProt P62593)
Sequence (P62593 24-286 limits assumed): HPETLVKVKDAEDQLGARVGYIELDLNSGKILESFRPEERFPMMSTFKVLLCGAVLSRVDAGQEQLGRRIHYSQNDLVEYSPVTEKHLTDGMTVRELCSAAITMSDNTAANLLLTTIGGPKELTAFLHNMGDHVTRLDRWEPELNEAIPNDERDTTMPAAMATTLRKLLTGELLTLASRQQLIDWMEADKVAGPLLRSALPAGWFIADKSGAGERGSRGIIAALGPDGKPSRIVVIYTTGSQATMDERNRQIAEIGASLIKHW
Assay: IC50 determination with nitrocefin as reporter substrate, TEM-1
Settings: 30 min pre-incubation at 37° C., phosphate buffer pH 7.0, nitrocefin
measurement.label: pIC50
In plain terms, pIC50 is the concentration in mol/L turned into minus its base-10 logarithm.

Task: // fetch class A beta-lactamase TEM-1 (Escherichia coli, UniProt P62593) pIC50 for CO[C@H]1CCC[C@H]2C1=C(C(=O)O)N1C(=O)C(C(C)O)[C@@H]21 (stereo partly shown) [LK-176]
Output: 7.82

* * *

Tested on: E. cloacae B274 (AmpC)
Assay: Broth microdilution susceptibility assay (MIC), strain S1
Assay type: cell-based
Conditions: Table 2 lower part; duplicate; CAMHB, 35° C., 24 h
measurement.label: MIC S1 (µg/mL)
Write down the numeric answer in µg/mL and omit the unit.

CO[C@H]1CCC[C@H]2C1=C(C(=O)O)N1C(=O)C(C(C)O)[C@@H]21 (stereo partly shown) [LK-176] = 16

Task: Using the record for CO/N=C(\C(=O)N[C@@H]1C(=O)N2C(C(=O)O)=C(CSc3nc(=O)c(O)nn3C)CS[C@H]12)c1csc(N)n1 [Ceftriaxone (TRI), ceftriaxone] , report its MIC S1.
Output: 128
